Data origin, for the record: ChEMBL document CHEMBL1129946

Hi! I'm sharing some Ki results obtained with 5-hydroxytryptamine receptor 4 (Rattus norvegicus, UniProt Q62758).
Sequence (Q62758 whole entry): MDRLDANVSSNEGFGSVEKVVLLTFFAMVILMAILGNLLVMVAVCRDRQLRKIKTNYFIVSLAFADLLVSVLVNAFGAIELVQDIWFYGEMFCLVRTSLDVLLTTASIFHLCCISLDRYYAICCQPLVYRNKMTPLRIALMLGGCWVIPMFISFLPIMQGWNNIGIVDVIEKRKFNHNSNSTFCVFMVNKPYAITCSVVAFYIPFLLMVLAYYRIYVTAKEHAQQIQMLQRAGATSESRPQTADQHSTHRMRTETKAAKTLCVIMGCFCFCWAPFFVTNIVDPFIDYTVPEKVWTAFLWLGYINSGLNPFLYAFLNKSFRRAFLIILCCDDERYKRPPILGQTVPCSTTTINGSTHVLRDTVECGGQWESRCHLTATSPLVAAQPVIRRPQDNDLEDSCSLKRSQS
readout_type: Ki

{"compound": "COc1cc(N)c(Cl)cc1C(=O)OCCN1CCCC(O)C1 (stereo in doubt; 7l)", "readout_type": "Ki", "recorded_value": "2 nM"}
{"compound": "COc1cc(N)c(Cl)cc1C(=O)OCCN1CC=CCC1", "readout_type": "Ki", "recorded_value": "9.1 nM"}
{"compound": "CC(C)n1c(=O)n(C(=O)NC2CC3CCC(C2)N3C)c2ccccc21 (stereo unspecified)", "readout_type": "Ki", "recorded_value": "257 nM"}
{"compound": "COc1cc(N)c(Cl)cc1C(=O)OCCN1CCC(NC(C)=O)CC1", "readout_type": "Ki", "recorded_value": "1.05 nM"}
{"compound": "COc1cc(N)c(Cl)cc1C(=O)NC1CC2CCC(C1)N2C (stereo unspecified)", "readout_type": "Ki", "recorded_value": "48.6 nM"}
{"compound": "COc1cc(N)c(Cl)cc1C(=O)OCCN1CC2CCC(CC2)C1", "readout_type": "Ki", "recorded_value": "5.45 nM"}

###

// values below are pKi; system is 5-hydroxytryptamine receptor 4 (Rattus norvegicus, UniProt Q62758)
pKi: −log10 of the molar value.

{"compound": "COc1cc(N)c(Cl)cc1C(=O)NCCN(C)C", "system_under_test": "5-hydroxytryptamine receptor 4 (Rattus norvegicus, UniProt Q62758)", "value_relation_sign": "<", "pKi": 6.00}
{"compound": "COc1cc(N)c(Cl)cc1C(=O)OCCN1CCC(O)CC1", "system_under_test": "5-hydroxytryptamine receptor 4 (Rattus norvegicus, UniProt Q62758)", "value_relation_sign": "=", "pKi": 8.85}
{"compound": "CCN(CC)CCOC(=O)c1cc(Cl)c(N)cc1OC", "system_under_test": "5-hydroxytryptamine receptor 4 (Rattus norvegicus, UniProt Q62758)", "value_relation_sign": "=", "pKi": 8.26}
{"compound": "COc1cc(N)c(Cl)cc1C(=O)NCCN1CC(C)CC(C)C1 (stereo unspecified)", "system_under_test": "5-hydroxytryptamine receptor 4 (Rattus norvegicus, UniProt Q62758)", "value_relation_sign": "=", "pKi": 6.99}
{"compound": "COc1cc(N)c(Cl)cc1C(=O)OCCN1CCCC(O)C1 (stereo in doubt; 7k)", "system_under_test": "5-hydroxytryptamine receptor 4 (Rattus norvegicus, UniProt Q62758)", "value_relation_sign": "=", "pKi": 9.00}
{"compound": "COc1cc(N)c(Cl)cc1C(=O)OCCN1CC(C)CC(C)C1 (stereo in doubt; 7h)", "system_under_test": "5-hydroxytryptamine receptor 4 (Rattus norvegicus, UniProt Q62758)", "value_relation_sign": "=", "pKi": 8.63}
{"compound": "COc1cc(N)c(Cl)cc1C(=O)OCCN1CCCC1", "system_under_test": "5-hydroxytryptamine receptor 4 (Rattus norvegicus, UniProt Q62758)", "value_relation_sign": "=", "pKi": 8.27}
{"compound": "COc1cc(N)c(Cl)cc1C(=O)N(C)CCN1CCCCC1", "system_under_test": "5-hydroxytryptamine receptor 4 (Rattus norvegicus, UniProt Q62758)", "value_relation_sign": "<", "pKi": 6.00}
{"compound": "COc1cc(N)c(Cl)cc1C(=O)OCCN1CCCC(O)C1 (stereo in doubt; 7j)", "system_under_test": "5-hydroxytryptamine receptor 4 (Rattus norvegicus, UniProt Q62758)", "value_relation_sign": "=", "pKi": 8.32}
{"compound": "COc1cc(N)c(Cl)cc1C(=O)OCCCN1CCCCC1", "system_under_test": "5-hydroxytryptamine receptor 4 (Rattus norvegicus, UniProt Q62758)", "value_relation_sign": "=", "pKi": 7.55}
{"compound": "COc1cc(N)c(Cl)cc1C(=O)OCCN1CCC(C(N)=O)CC1", "system_under_test": "5-hydroxytryptamine receptor 4 (Rattus norvegicus, UniProt Q62758)", "value_relation_sign": "=", "pKi": 8.84}

###

# system_under_test: 5-hydroxytryptamine receptor 4 (Cavia porcellus)
# Sequence (O70528 whole entry): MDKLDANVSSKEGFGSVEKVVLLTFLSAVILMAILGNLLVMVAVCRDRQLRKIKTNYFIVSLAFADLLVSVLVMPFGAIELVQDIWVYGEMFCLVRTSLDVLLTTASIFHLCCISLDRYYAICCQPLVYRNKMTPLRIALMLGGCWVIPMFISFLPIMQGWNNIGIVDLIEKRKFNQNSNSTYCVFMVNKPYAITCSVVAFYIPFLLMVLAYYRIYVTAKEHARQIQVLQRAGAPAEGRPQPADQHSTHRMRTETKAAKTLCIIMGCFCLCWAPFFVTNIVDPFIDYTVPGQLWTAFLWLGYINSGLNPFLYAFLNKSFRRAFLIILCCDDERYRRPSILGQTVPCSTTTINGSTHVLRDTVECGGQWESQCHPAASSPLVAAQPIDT
# assay_comment: 5-hydroxytryptamine 4 receptor antagonist activity, concentration which gave 50% reduction of the 5-HT-induced contractions in the guinea pig ileum
# Type: functional, tissue-based
pIC50: −log10 of the molar value.

{"compound": "COc1cc(N)c(Cl)cc1C(=O)OCCN(C)C", "system_under_test": "5-hydroxytryptamine receptor 4 (Cavia porcellus)", "value_relation_sign": "=", "pIC50": 6.22}
{"compound": "COc1cc(N)c(Cl)cc1C(=O)OCCN1CC(C)OC(C)C1 (stereo unspecified)", "system_under_test": "5-hydroxytryptamine receptor 4 (Cavia porcellus)", "value_relation_sign": "=", "pIC50": 6.52}
{"compound": "COc1cc(N)c(Cl)cc1C(=O)OCCN1CC(C)CC(C)C1 (stereo in doubt; 7h)", "system_under_test": "5-hydroxytryptamine receptor 4 (Cavia porcellus)", "value_relation_sign": "=", "pIC50": 7.89}
{"compound": "COc1cc(N)c(Cl)cc1C(=O)NCCN1CCCCC1", "system_under_test": "5-hydroxytryptamine receptor 4 (Cavia porcellus)", "value_relation_sign": "<", "pIC50": 6.00}
{"compound": "COc1cc(N)c(Cl)cc1C(=O)OCCN1CCCC(C)(C)C1", "system_under_test": "5-hydroxytryptamine receptor 4 (Cavia porcellus)", "value_relation_sign": "=", "pIC50": 6.82}
{"compound": "COc1cc(N)c(Cl)cc1C(=O)OCCN1CC(C)CC(C)C1 (stereo in doubt; 7g)", "system_under_test": "5-hydroxytryptamine receptor 4 (Cavia porcellus)", "value_relation_sign": "=", "pIC50": 7.96}
{"compound": "COc1cc(N)c(Cl)cc1C(=O)OCCN1CCN(c2ccccc2)CC1", "system_under_test": "5-hydroxytryptamine receptor 4 (Cavia porcellus)", "value_relation_sign": "=", "pIC50": 7.00}
{"compound": "Cn1cc(C(=O)OCC2CCN(CCNS(C)(=O)=O)CC2)c2ccccc21", "system_under_test": "5-hydroxytryptamine receptor 4 (Cavia porcellus)", "value_relation_sign": "=", "pIC50": 7.89}
{"compound": "COc1cc(N)c(Cl)cc1C(=O)OCCN1CCCC1", "system_under_test": "5-hydroxytryptamine receptor 4 (Cavia porcellus)", "value_relation_sign": "=", "pIC50": 6.70}
{"compound": "COc1cc(N)c(Cl)cc1C(=O)N(C)CCN1CCCCC1", "system_under_test": "5-hydroxytryptamine receptor 4 (Cavia porcellus)", "value_relation_sign": "<", "pIC50": 6.00}

###

# system_under_test: 5-hydroxytryptamine receptor 4 (Cavia porcellus)
# assay_comment: 5-hydroxytryptamine 4 receptor agonist activity is expressed as percent of the maximum 5-HT response
# Format: functional
# Activity per record follows

{"compound": "COc1cc(N)c(Cl)cc1C(=O)OCCN1CC=CCC1", "Activity / %": 65}
{"compound": "COc1cc(N)c(Cl)cc1C(=O)N[C@H]1CN2CCC1CC2 [(R)ZACOPRIDE]", "Activity / %": 84}
{"compound": "COc1cc(N)c(Cl)cc1C(=O)OCCN(C)C", "Activity / %": 60}
{"compound": "COc1cc(N)c(Cl)cc1C(=O)OCC[N+]12CCC(CC1)CC2", "Activity / %": 78}
{"compound": "COc1cc(N)c(Cl)cc1C(=O)OCCN1CCC(O)CC1", "Activity / %": 72}
{"compound": "COc1cc(N)c(Cl)cc1C(=O)OCCN1CCCC(O)C1 (stereo in doubt; 7j)", "Activity / %": 64}
{"compound": "COc1cc(N)c(Cl)cc1C(=O)OCCN1C2CCCC1CC2", "Activity / %": 63}
{"compound": "COc1cc(N)c(Cl)cc1C(=O)OCCN1CCCCCC1", "Activity / %": 59}
{"compound": "COc1cc(N)c(Cl)cc1C(=O)NCCN1CC(C)CC(C)C1 (stereo unspecified)", "Activity / %": 80}
{"compound": "COc1cc(N)c(Cl)cc1C(=O)OCCN1CCC(C(N)=O)CC1", "Activity / %": 65}
{"compound": "COc1cc(N)c(Cl)cc1C(=O)OC1CC2CCC(C1)N2C (stereo unspecified)", "Activity / %": 41}
{"compound": "COc1cc(N)c(Cl)cc1C(=O)OCCN1CC2CCC(CC2)C1", "Activity / %": 61}
{"compound": "COc1cc(N)c(Cl)cc1C(=O)OCCN1CCC(C)CC1", "Activity / %": 57}
{"compound": "COc1cc(N)c(Cl)cc1C(=O)OCCN1CCCC(C)C1 (stereo unspecified)", "Activity / %": 54}
{"compound": "COc1cc(N)c(Cl)cc1C(=O)OCCN1CCCC1", "Activity / %": 50}
{"compound": "COc1cc(N)c(Cl)cc1C(=O)N[C@@H]1CN2CCC1CC2", "Activity / %": 100}
{"compound": "COc1cc(N)c(Cl)cc1C(=O)OCCN1CCC(NC(C)=O)CC1", "Activity / %": 59}
{"compound": "COc1cc(N)c(Cl)cc1C(=O)OCCN1CCCCC1C (stereo unspecified)", "Activity / %": 82}
{"compound": "COc1cc(N)c(Cl)cc1C(=O)OCCCN1CCCCC1", "Activity / %": 52}
{"compound": "COc1cc(N)c(Cl)cc1C(=O)OCCN1CCCC(O)C1 (stereo in doubt; 7l)", "Activity / %": 61}
{"compound": "COc1cc(N)c(Cl)cc1C(=O)OCCN1CCCC(O)C1 (stereo in doubt; 7k)", "Activity / %": 62}
